Values of IC50 reported for Human His6-CBX7 (Homo sapiens (Human)) appear below.
OBSERVED PROPERTY: IC50 (µM)

See these solved cases before continuing.
O=C(N/N=C/c1ccc(N2CCCC2)cc1)c1cc(-c2ccco2)nc2ccccc12 [ACV-05]
1.88
C(=N\Nc1nc(-c2ccc(OCc3ccccc3)cc2)cs1)/c1cccnc1 [ACV-59]
759
CN1CCN(CCNc2nc(CC(=O)Nc3ccc(N4CCCC4)cc3)cs2)CC1 [ACV-85]
54.8
O=C(Cc1ccc(O)c(O)c1)NCc1nc(CC(=O)Nc2ccc(N3CCCC3)cc2)cs1 [ACV-96]
79.3
c1cn2c(NC3CCCCC3)c(-c3ccc4[nH]ncc4c3)nc2cn1 [ACV-94]
123

1: O=C(CC1SC(N2CCC(c3ccc(O)c(O)c3O)=N2)=NC1=O)Nc1ccc(N2CCCC2)cc1 (stereo not drawn) [CBX-08]
2: CN1CCN(CCNC(=O)CC2S/C(=N/N=C/c3ccc(O)c(O)c3O)NC2=O)CC1 (stereo not drawn) [ACV-63 (2)]
3: O=C(Nc1ccc(N2CCCC2)cc1)c1ccc(-c2csc(CCN3CCOCC3)n2)cc1 [ACV-89]
4: O=C(Cc1cnc(NC(=O)C(F)(F)c2ccccc2)s1)Nc1ccc(N2CCCC2)cc1 [ACV-74]
5: COc1cc(NC(=O)Nc2ncc(CC(=O)Nc3ccc(N4CCCC4)cc3)s2)cc(OC)c1OC [ACV-50]
Returns the items ordered by IC50, from maximum to minimum. Show the ranking through the labels, in the order asked for.
4, 2, 3, 5, 1
(4: 167 µM, 2: 22.5 µM, 3: 12.9 µM, 5: 7.2 µM, 1: 0.835 µM)

Reference source for all entries: patent US12129248B2
